assay: MTT cytotoxicity assay in HEK293T/17 cells; type: cell-based; details: human, HEK293T/17 cells (human embryonic kidney), 24 h post-treatment

compound: C=C1CC[C@@H]2[C@](C)(CO)[C@H](O)CC[C@@]2(C)[C@@H]1C/C=C1/C(=O)OC[C@H]1O [Andrographolide]
unit-text: µM
CC50 at 24 h: 294

compound: C=C1CC[C@@H]2[C@](C)(CO)[C@H](O)CC[C@@]2(C)[C@@H]1C/C=C1/C(=O)OC[C@@H]1Oc1ccc([N+](=O)[O-])cc1OC [ZAD-2]
unit-text: µM
CC50 at 24 h: 197

compound: C=C1CC[C@@H]2[C@](C)(COC(C)=O)[C@H](O)CC[C@@]2(C)[C@@H]1C/C=C1/C(=O)OC[C@H]1Oc1ccc([N+](=O)[O-])cc1OC [ZAD-3]
unit-text: µM
CC50 at 24 h: 201

compound: C=C1CC[C@@H]2[C@]3(C)COC(C)(C)O[C@@H]3CC[C@@]2(C)[C@@H]1C/C=C1/C(=O)OC[C@@H]1Oc1c(Cl)cc(Cl)c2ccc(C)nc12 [ZAD-1]
unit-text: µM
CC50 at 24 h: 149
